- Tgt: canine TRPM8 (Canis lupus familiaris, UniProt Q1A7N1)
- Construct: expressed in transfected cells
- Sequence (Q1A7N1 1-1104): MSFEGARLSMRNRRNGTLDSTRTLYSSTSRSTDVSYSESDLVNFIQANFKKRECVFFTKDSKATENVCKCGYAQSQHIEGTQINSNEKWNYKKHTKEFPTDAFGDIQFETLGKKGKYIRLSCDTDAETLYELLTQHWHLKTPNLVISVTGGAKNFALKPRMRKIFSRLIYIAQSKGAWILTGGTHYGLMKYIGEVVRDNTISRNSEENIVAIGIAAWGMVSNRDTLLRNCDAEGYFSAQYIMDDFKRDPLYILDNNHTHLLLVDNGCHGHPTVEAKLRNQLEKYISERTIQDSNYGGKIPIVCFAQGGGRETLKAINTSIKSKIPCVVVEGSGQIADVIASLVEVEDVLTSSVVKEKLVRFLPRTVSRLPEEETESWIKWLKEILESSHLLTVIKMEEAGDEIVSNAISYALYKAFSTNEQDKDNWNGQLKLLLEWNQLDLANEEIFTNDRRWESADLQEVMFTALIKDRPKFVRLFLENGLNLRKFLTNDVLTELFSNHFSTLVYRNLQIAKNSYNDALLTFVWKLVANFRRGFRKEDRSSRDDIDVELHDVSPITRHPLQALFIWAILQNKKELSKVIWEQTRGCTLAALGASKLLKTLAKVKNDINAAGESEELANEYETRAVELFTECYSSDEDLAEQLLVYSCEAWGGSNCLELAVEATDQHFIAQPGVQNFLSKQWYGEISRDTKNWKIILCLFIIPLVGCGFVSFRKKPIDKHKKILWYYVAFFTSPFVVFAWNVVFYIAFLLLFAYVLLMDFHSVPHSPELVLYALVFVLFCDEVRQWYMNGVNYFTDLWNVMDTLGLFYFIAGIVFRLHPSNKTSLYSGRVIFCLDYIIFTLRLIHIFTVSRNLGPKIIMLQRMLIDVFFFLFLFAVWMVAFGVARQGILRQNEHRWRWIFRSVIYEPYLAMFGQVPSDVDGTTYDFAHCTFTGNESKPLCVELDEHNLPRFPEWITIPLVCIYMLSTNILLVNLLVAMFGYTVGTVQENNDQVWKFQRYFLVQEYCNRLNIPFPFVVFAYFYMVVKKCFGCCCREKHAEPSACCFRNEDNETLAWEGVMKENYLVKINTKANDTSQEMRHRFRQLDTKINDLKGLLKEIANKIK
- Method description: In Vitro Canine TRPM8 Functional Assay (Ca2+ fluorescence, icilin activation)
- Format: cell-based
- Assay context: HEK293, 0.5 μM compound; canine TRPM8 HEK293; icilin
- Procedure: The functional activity of compounds of the formula (I) was determined by measuring changes in intracellular calcium concentration using a Ca^2+-sensitive fluorescent dye. The changes in fluorescent signal were monitored by a fluorescence plate reader, either a FLIPR™ (Molecular Devices) or FDSS (Hamamatsu). Increases in intracellular Ca^2+ concentration were readily detected upon activation with icilin. […]
Readout type: inhibition at 0.5 µM (%)

- O=C(C(Nc1ccccc1)c1ccc(Br)cc1)N1CCCC1c1ccccc1Cl (stereo not drawn) [Cpd 67]: 102
- O=C(C(Nc1ccccc1)c1ccc(C(F)(F)F)cc1)N1CCCC1c1ccccc1F (single isomer, unassigned) [Cpd 45]: 101
- O=C(C(Nc1ccccc1)c1ccc(C(F)(F)F)cc1)N1CCCCC1c1ccccc1 (stereo not drawn) [Cpd 44]: 101
- COc1ccccc1C1CCCN1C(=O)C(Nc1ccccc1)c1ccc(Cl)cc1 (stereo not drawn) [Cpd 85]: 97
- O=C(C(Nc1ccccc1F)c1ccc(Br)cc1)N1CCCC1c1ccccc1Cl (stereo not drawn) [Cpd 89]: 98
- O=C(C(Nc1cccc(F)c1)c1ccc(C(F)(F)F)cc1)N1CCCC1c1ccccc1Cl (stereo not drawn) [Cpd 78]: 94
- O=C(C(Nc1ccc(F)cc1)c1ccc(C(F)(F)F)cc1)N1Cc2ccccc2C1 (stereo not drawn) [Cpd 77]: 98
- O=C(C(Nc1ccc(F)cc1)c1ccc(C(F)(F)F)cc1)N1CCCC1c1ccccc1 (single isomer, unassigned) [Cpd 75]: 98
- COc1ccccc1C1CCCN1C(=O)C(Nc1ccccc1F)c1ccc(Cl)cc1 (stereo not drawn) [Cpd 111]: 96

###

- Tgt: canine TRPM8 (Canis lupus familiaris)
- Construct: expressed in transfected cells
- Method description: In Vitro Canine TRPM8 Functional Assay (Ca2+ fluorescence, icilin activation)
- Format: cell-based
- Assay context: HEK293, 0.5 μM compound; canine TRPM8 HEK293; icilin
Recorded inhibition at 0.5 µM values for a group of molecules are listed next.
Readout type: inhibition at 0.5 µM (%)

• COc1ccccc1C1CCCN1C(=O)C(Nc1ccccc1F)c1ccc(C(F)(F)F)cc1 (centres unmarked) [Cpd 148] = 99
• O=C(C(Nc1ccccc1F)c1ccc(Br)cc1)N1Cc2ccccc2C1 (centres unmarked) [Cpd 92] = 98
• O=C(C(Nc1cccc(F)c1F)c1ccc(Cl)cc1)N1CCCC1c1ccccc1Cl (single isomer, unassigned) [Cpd 165] = 99
• COc1ccc(NC(C(=O)N2CCCC2c2ccccc2F)c2ccc(Cl)cc2)cc1 (centres unmarked) [Cpd 137] = 81
• O=C(C(Nc1ccccc1)c1ccc(C(F)(F)F)cc1)N1CCCC1c1ccccc1Br (centres unmarked) [Cpd 29] = 104
• COc1ccc(NC(C(=O)N2CCCC2c2ccccc2OC)c2ccc(Cl)cc2)cc1 (centres unmarked) [Cpd 138] = 95
• O=C(NN1CCCC1c1ccccc1Cl)C(Nc1ccccc1)c1ccc(C(F)(F)F)cc1 (centres unmarked) [Cpd 63] = 36
• O=C(C(Nc1ccccc1F)c1ccc(Cl)cc1)N1CCCC1c1ccccc1 (centres unmarked) [Cpd 112] = 96
• O=C(C(CNc1ccccc1)c1ccc(C(F)(F)F)cc1)N1CCc2ccccc2C1 (centres unmarked) [Cpd 102] = 98
• O=C(C(CNc1ccccc1)c1ccc(C(F)(F)F)cc1)N1CCCC1c1ccccc1F (centres unmarked) [Cpd 103] = 75
• Cc1ccccc1NC(C(=O)N1CCc2ccccc21)c1ccc(C(F)(F)F)cc1 (centres unmarked) [Cpd 34] = 102
• O=C(C(Nc1c(F)cccc1F)c1ccc(Cl)cc1)N1CCCC1c1ccccc1Cl (centres unmarked) [Cpd 143] = 101
• O=C(C(Nc1cccc(F)c1F)c1ccc(Cl)cc1)N1CCCC1c1ccccc1F (single isomer, unassigned) [Cpd 163] = 94
• COc1ccccc1C1CCCN1C(=O)C(Nc1ccccc1F)c1ccc(Br)cc1 (racemic) [Cpd 90] = 97
• O=C(C(Nc1ccc(F)cc1F)c1ccc(Cl)cc1)N1Cc2ccccc2C1 (centres unmarked) [Cpd 126] = 100
• COc1ccccc1C1CCCN1C(=O)C(Nc1ccccc1)c1ccc(C(F)(F)F)cc1 (centres unmarked) [Cpd 43] = 101
• O=C(C(Nc1ccccc1F)c1ccc(C(F)(F)F)cc1)N1CCCC1c1cccc(F)c1 (single isomer, unassigned) [Cpd 133] = 98
• O=C(C(Nc1ccccc1F)c1ccc(Cl)cc1)N1CCCC1c1ccccc1F (single isomer, unassigned) [Cpd 157] = 93
• O=C([C@@H](Nc1ccccc1F)c1ccc(C(F)(F)F)cc1)N1CCC[C@H]1c1ccccc1F (single isomer, unassigned) [Cpd 152] = 101
• Cc1cccc2c1N(C(=O)C(Nc1ccccc1)c1ccc(C(F)(F)F)cc1)CC2 (centres unmarked) [Cpd 27] = 93.2
• O=C(C(Nc1ccc(F)cc1F)c1ccc(Cl)cc1)N1CCCC1c1ccccc1 (centres unmarked) [Cpd 125] = 96
• O=C(C(CNc1ccccc1F)c1ccc(C(F)(F)F)cc1)N1CCCC1c1ccccc1 (centres unmarked) [Cpd 108] = 88
• O=C(C(Nc1ccc(F)cc1)c1ccc(Cl)cc1)N1Cc2cccc(F)c2C1 (centres unmarked) [Cpd 121] = 97
• O=C(C(Nc1ccccc1)c1ccc(C(F)(F)F)cc1)N1CCc2ccccc21 (centres unmarked) [Cpd 33] = 96.5
• COc1ccc(NC(C(=O)N2Cc3cccc(F)c3C2)c2ccc(Cl)cc2)cc1 (centres unmarked) [Cpd 141] = 79
• O=C(C(Nc1c(F)cccc1F)c1ccc(Cl)cc1)N1CCCC1c1ccccc1F (centres unmarked) [Cpd 144] = 102

###

Recorded IC50 values for a group of compounds are listed next.
- Tgt: canine TRPM8 (Canis lupus familiaris)
- Method description: In Vitro Canine TRPM8 Functional Assay (Ca2+ fluorescence, icilin activation)
- Assay context: HEK293 cells stably expressing canine TRPM8; icilin activation; Ca2+ fluorescence
Readout type: IC50 (nM)

* O=C(C(Nc1ccccc1F)c1ccc(C(F)(F)F)cc1)N1CCc2ccccc2C1 (stereo not shown) | 48
* O=C(C(Nc1ccc(F)cc1)c1ccc(C(F)(F)F)cc1)N1CCCC1c1ccccc1 (single isomer, unassigned) [Cpd 76] | 101
* O=C(C(Nc1ccccc1)c1ccc(C(F)(F)F)cc1)N1CCCC1c1ccccc1 (stereo not shown) | 60.3
* O=C(C(Nc1ccc(F)cc1)c1ccc(Cl)cc1)N1Cc2cccc(F)c2C1 (stereo not shown) | 125
* O=C(C(Nc1cccc(F)c1F)c1ccc(Cl)cc1)N1CCCC1c1ccccc1F (single isomer, unassigned) [Cpd 163] | 145
* CC(C)(C)c1ccc(C(Nc2ccccc2)C(=O)N2CCCC2c2ccccc2Cl)cc1 (single isomer, unassigned) [Cpd 1] | 313
* O=C(C(Nc1ccccc1F)c1ccc(C(F)(F)F)cc1)N1CCCC1c1ccccc1F (mixture of isomers) [Cpd 153] | 44
* CCOC(=O)c1ccc(C(Nc2ccccc2F)C(=O)N2CCC[C@H]2c2ccccc2F)cc1 (mixture of isomers) | 13
* O=C(C(Nc1ccc(F)cc1)c1ccc(Cl)cc1)N1CCCC1c1ccccc1Cl (stereo not shown) | 80.3
* COc1ccccc1C1CCCN1C(=O)C(Nc1cccc(F)c1F)c1ccc(Cl)cc1 (stereo not shown) | 34
* O=C(C(Nc1ccccc1F)c1ccc(C(F)(F)F)cc1)N1CCCC1c1cncc(Br)c1 (single isomer, unassigned) [Cpd 346] | 38
* O=C(C(Cc1cccc(F)c1F)c1ccc(C(F)(F)F)cc1)N1CCCC1c1ccccc1F (stereo not shown) | 65.8
* O=C(C(Nc1ccccc1)c1ccc(C(F)(F)F)cc1)N1CCCC1c1cc2ccccc2[nH]1 (stereo not shown) | 141
* O=C(C(Nc1ccc(F)cc1F)c1ccc(Cl)cc1)N1Cc2cccc(F)c2C1 (stereo not shown) | 86.9
* N#Cc1ccc(C(Nc2ccccc2F)C(=O)N2CCCC2c2ccccc2Cl)cc1 (stereo not shown) | 78
* O=C(C(Nc1ccccc1)c1cnc2ccccc2c1)N1CCCC1c1ccccc1F (stereo not shown) [Cpd 226] | 42.5
* COc1ccccc1C1CCCN1C(=O)C(Nc1ccccc1F)c1ccc(Cl)cc1 (stereo not shown) | 13
* O=C(C(Nc1ccccc1F)c1cnc2ccccc2c1)N1CCCC1c1ccccc1F (stereo not shown) | 94
* COC(=O)c1cccc(C2CCCN2C(=O)C(Nc2ccccc2F)c2cc3ccccc3s2)c1 (stereo not shown) | 28
* COc1ccc(NC(C(=O)N2Cc3cccc(F)c3C2)c2ccc(Cl)cc2)cc1 (stereo not shown) | 188
* O=C([C@@H](CNc1ccccc1)c1ccc(C(F)(F)F)cc1)N1CCC[C@@H]1c1ccccc1 (relative stereo) | 36.2
* O=C(C(Nc1ccccc1F)c1ccc(C(F)(F)F)cc1)N1CCCC1c1cncc(Br)c1 (single isomer, unassigned) [Cpd 345] | 44
* O=C(C(Nc1ccc(F)cc1)c1ccc(Cl)cc1)N1CCCC1c1ccccc1F (stereo not shown) | 47.5
* O=C(C(Nc1ccccc1F)c1ccc2ncccc2c1)N1CCCC1c1ccccc1F (single isomer, unassigned) [Cpd 251] | 53.7
* COc1ccccc1C1CCCN1C(=O)C(Nc1ccccc1F)c1cnc2ccccc2c1 (single isomer, unassigned) | 8
* O=C(C(c1ccc(C(F)(F)F)cc1)N1CCc2ccccc21)N1CCc2ccccc21 (stereo not shown) | 231
* O=C(C(Nc1ccccc1)c1ccc(C(F)(F)F)cc1)N1CCCC1c1ccccc1F (single isomer, unassigned) [Cpd 47] | 200
* O=C(C(c1ccc(C(F)(F)F)cc1)N1CCc2ccccc21)N1CCCC1c1ccccc1F (stereo not shown) | 25.4
* O=C(C(Nc1ccc(F)cc1)c1ccc(C(F)(F)F)cc1)N1CCCC1c1ccccc1 (single isomer, unassigned) [Cpd 75] | 20
* O=C(C(Nc1ccccc1F)c1ccc(N2CCOCC2)nc1)N1CCC[C@H]1c1ccccc1F (mixture of isomers) | 8
* O=C(C(Nc1ccccc1F)c1ccc(C(F)(F)F)cc1)N1CCCC1c1ccccc1 (single isomer, unassigned) [Cpd 128] | 4.6
